STUDY_SYSTEM: RORC2 ligand binding domain (6-His-RORC2 LBD) (Homo sapiens (Human))
Sequence (P51449 269-508): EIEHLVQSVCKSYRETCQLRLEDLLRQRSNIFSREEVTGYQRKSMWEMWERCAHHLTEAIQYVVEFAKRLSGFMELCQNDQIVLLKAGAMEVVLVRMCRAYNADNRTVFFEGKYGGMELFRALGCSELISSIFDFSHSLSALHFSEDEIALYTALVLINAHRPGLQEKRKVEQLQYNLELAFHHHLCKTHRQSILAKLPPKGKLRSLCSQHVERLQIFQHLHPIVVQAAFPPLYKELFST
ASSAY_METHOD_TEXT: Assay of co-activator recruitment by TR-FRET
RUN_CONDITIONS: 6-His-RORC2 LBD / biotin-coactivator peptide SRC1-2 interaction, 3 hr room temperature
Documented log10 IC50 across a set of compounds
MEASURED_ATTRIBUTE: log10 IC50 (log10 of the value in nM)

• CC(C)C(=O)N1CC[C@@H](c2cn(C)c3ccc(NS(=O)(=O)c4ccc(F)cc4)cc23)CC1(C)C (single isomer, unassigned) = 0.85
• CC(C)C(=O)N1CC[C@@H](c2cn(C)c3ccc(NS(=O)(=O)c4ccc(F)cc4)cc23)[C@@H](C)C1 (single isomer, unassigned) = 0.71
• C[C@@H](C(=O)N1CCC(c2cn(C)c3ccc(NS(=O)(=O)c4ccc(F)cc4)cc23)CC1)C1CCCC1 = 0.65
• Cc1noc(C)c1S(=O)(=O)Nc1ccc2c(c1)c(C1CCN(C(=O)[C@H](C)C(C)(C)C)CC1)cn2C = 1.00
• Cn1cc(C2CCN(C(=O)CC3CC3)CC2)c2cc(NS(=O)(=O)c3ccc(F)cc3)ccc21 = 1.23
• Cc1nn(C)c(C)c1S(=O)(=O)Nc1ccc2c(c1)c(C1CCN(C(=O)[C@H](C)C(C)(C)C)CC1)cn2C = 0.11
• Cn1cc(C2CCN(C(=O)C3CC3)CC2)c2cc(NS(=O)(=O)c3ccc(F)cc3)ccc21 = 1.23
